All figures here come from PubChem BioAssay.

- Experiment: inhibitors of Chlamydomonas gravitaxis, primary screen, whole organism, Chlamydomonas reinhardtii, WT vs cilia-less mutant, absorbance, 96-well (AID 463189);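 note: 0% = wild type cc124 cells in DMSO and 100% = ciliumless bld1 mutant cells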
- Condition Set: OD600 absorbance, 2 days, at 10 µM
Activity calls are given as the source filed them.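 Rule for the calls: active = inhibition at or above 50% relative to wild type and mutant plate controls; inactive = inhibition below 50%.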
Lab note: assign the record to one of yes (1) (active), no (0) (inactive)

q: Outcome? "COCCCNC(=O)c1c(N)n(/N=C/c2cccnc2)c2nc3ccccc3nc12"
a: no (0)

q: Which result was noted for this molecule in the test: "O=C1c2ccccc2-c2onc3ccc(NCc4ccco4)c1c23"
a: no (0)

q: Tell me the recorded outcome of this test for CC(=O)C1=C(O)C(=O)N(c2ccc(S(N)(=O)=O)cc2)C1c1ccccc1F (configuration not stated) .
a: no (0)

q: Returns: the outcome recorded for "C/C(=N/n1cnnc1)c1cccnc1" in this assay.
a: no (0)

q: Assay outcome for "COC(=O)c1ccccc1OCc1cccc(C)n1" : what was it?
a: no (0)

q: Please share the test call associated with "O=C(COc1ccc(Cl)cc1)Nc1ccccc1CO" .
a: no (0)

q: // return assay outcome for "COC(=O)c1cc(Br)c(=O)n(Cc2ccco2)c1"
a: no (0)

q: Answer briefly: the call reported for "COCCn1c(SCc2c(F)cccc2Cl)nc2c1c(=O)[nH]c(=O)n2C" in this assay.
a: no (0)

q: Could you kindly confirm the outcome this assay logged for "Cc1sc(-n2c(C)ccc2C)c(C#N)c1C" ?
a: no (0)

q: Could you check what this test reported for "CCOC(=O)c1c(C)n(C)c2ccc(OC)c(NC(=O)CN3CCC4(CC3)OCCO4)c12" ?
a: no (0)

q: Test call, this molecule: COC(=O)C1CCN(c2nc3ccccc3nc2C(C#N)C(=O)NCCc2ccccc2)CC1 (configuration not stated)
a: no (0)

q: Could you kindly confirm the outcome this assay logged for "CCCCC(=O)C1CCN(Cc2ccccc2)CC1" ?
a: yes (1)

q: Outcome logged for "COc1ccc(CSC2=NCCN2)cc1Cl" in this assay:
a: yes (1)

q: State the result this test recorded for "Cc1nc(NCCCO)c(C#N)c2c1COC(C)(C)C2" .
a: no (0)

q: Which outcome did this test record for the molecule COc1ccc(/C(O)=C2/C(=O)C(=O)N(CCCN(C)C)C2c2ccc(C)o2)cc1Cl (configuration not stated) ?
a: no (0)

q: Hello, I am checking results. What call was entered for "O=C(NCCCN1CCOCC1)C1(c2ccccc2)CCOCC1" ?
a: no (0)

q: Tell me the recorded outcome of this test for "CCOC(=O)C1CCN(c2ncnc3c2cnn3-c2ccc(Cl)cc2)CC1" .
a: no (0)

q: # fetch the recorded call for "CC(=O)c1cccc(N=C2NC(=O)C(CO)(CO)S2)c1" here
a: no (0)

q: Test call, this molecule: "COCc1n[nH]c(=S)n1-c1cccc2ccccc12"
a: no (0)

q: Answer briefly: the call reported for "Cc1cc(C)c(S(=O)(=O)O)c(C)n1" in this assay.
a: no (0)

q: Hi team, can someone confirm the assay call for "C=CCn1c(=O)c(C(=O)NCCN(CC)CC)c(O)c2ccccc21" ?
a: no (0)

q: Please share the test call associated with "CCN(CC)c1nc(N2CCOCC2)c(C#N)c2c1CN(C)CC2" .
a: no (0)

q: Assay result, entry CCCCSc1nc(O)c(C2OC(=O)c3c2ccc(OC)c3OC)c(=O)n1C (configuration not stated) — outcome?
a: no (0)

q: Short answer needed: outcome of this test for "CC(C)OC(=O)CCNc1n[nH]c(=O)[nH]c1=O" ?
a: no (0)

q: Check the results log: what was the call for CCC(=O)N(Cc1cccs1)C1CCOC(C)(C)C1 (configuration not stated) ?
a: no (0)

q: GET /call?item= "Cc1[nH]nc(-c2ccc(O)cc2O)c1Oc1ccccc1" returns the recorded outcome of this test.
a: no (0)

q: Called result for COc1ccc(C2Nc3ccccc3C(=O)N2Cc2ccco2)cc1CN1C(=O)c2ccccc2C1=O (configuration not stated)
a: no (0)

q: How was CCCCC(=O)NC(Nc1ccc(C)cn1)(C(=O)OCC)C(F)(F)F (configuration not stated) classified in this test?
a: no (0)

q: What classification did "COC(=O)CSc1nnc(C)c(=O)[nH]1" end up with in this test?
a: no (0)

q: Short answer needed: outcome of this test for "COc1ccc(OC)c(NS(=O)(=O)c2ccc(N3CCCC3=O)cc2)c1" ?
a: no (0)

q: Can you look up the reported call for "COc1nnnc2c1sc1nc(N3CCOCC3)c3c(c12)CC(C)(C)OC3" for me?
a: no (0)

q: Call for entry "COC(=O)[C@H]1CCCN1C(=O)Nc1cccc(Oc2c(F)c(F)c(F)c(F)c2F)c1" :
a: no (0)

q: Hi, sorry to bother you, what did the test record for "O=C(c1ccc(-n2cnnn2)cc1)N1CCOCC1" ?
a: no (0)

q: What call does the record list for "Cc1ccc(C(=O)NCC(C)(C)O)cc1" ?
a: no (0)

q: Would you mind telling me which call this test gave "CN(C)CCNC(=O)C12CC3(C)CC(C)(CC(C)(C3)C1)C2" ?
a: no (0)

q: // param item: "Clc1ccc(-n2ncc3c(NCc4cccs4)ncnc32)cc1" ; yields the recorded call
a: no (0)

q: Recorded test call requested for CCN(CC)CCCN1C(=O)C(=O)/C(=C(/O)c2ccc(OC)cc2)C1c1ccco1 (configuration not stated)
a: no (0)

q: Status in this test for "C=CCN(C)CCCNC(=O)/C=N/O" ?
a: no (0)

q: Recorded test outcome, item "CC1(C)Cc2c(C#N)c(N3CCN(C(=O)c4ccccc4)CC3)nc(-c3ccco3)c2CS1"
a: no (0)

q: For this molecule, state the assay outcome: Cc1ccc(C2/C(=C(\O)c3ccc4c(c3)OCCO4)C(=O)C(=O)N2CCCN(C)C)o1 (configuration not stated)
a: no (0)

q: Answer briefly: the call reported for "CCCn1nnc(NC(=O)c2cc(Br)cc(Br)c2OC)n1" in this assay.
a: no (0)

q: Called result for "CCCCSc1nnc(-c2ccc(NC(C)=O)cc2)n1C"
a: no (0)

q: Per the assay record, what outcome was assigned to CCOC(=O)C(C)c1nc2ccccc2[nH]c1=O (configuration not stated) ?
a: no (0)

q: Short answer needed: outcome of this test for COc1ccc(N2C(=O)C3C(C2=O)C2C=CC3C23CC3)c(OC)c1 (configuration not stated) ?
a: no (0)

q: Write down the call the test reported for this molecule. Item: "Clc1ccccc1CN(Cc1ccccc1)c1ncnc2nc[nH]c12"
a: no (0)

q: # outcome recorded in this test, key = COC(=O)C(NC(=O)c1ccccc1)(Nc1nc(C)cs1)C(F)(F)F (configuration not stated)
a: no (0)

q: Hi, do you know how Cc1c(Cl)cccc1N1C(=O)C2ON(c3ccccc3)C(c3cccnc3)C2C1=O (configuration not stated) came out in this test?
a: no (0)
